TEST SUMMARY: Quantitative highthroughput screen to assess conditional lethalithy of NOMO1 cells grown in RPMI1640 with dialyzed fetal bovine serum (RPMI+ds) (AID 1963877); further: nearly all actives have a fitted effect of over 30% in size
CONDITION DETAILS: NOMO1 in RPMI+dialyzed FBS viability, ATP luminescence, 48 h; series mostly up to 45.8 µM
Records with an inconclusive call do not appear. Active and inactive are the calls of the source. The call rests on the fitted dose curve; in most records, active means well fitted cell-killing curve with a large enough effect; inconclusive means small, poorly fitted or top-dose-only effect; inactive means flat fitted curve, though single readings scatter.
Labels: active, inactive

- COMPOUND: "C=C1c2cccc(O)c2C(O)=C2C(=O)[C@@]3(O)C(O)=C(C(N)=O)C(=O)[C@@H](N(C)C)[C@@H]3[C@@H](O)[C@H]12"
  CATEGORY: "inactive"
- COMPOUND: "CC(C)(Sc1cc(C(C)(C)C)c(O)c(C(C)(C)C)c1)Sc1cc(C(C)(C)C)c(O)c(C(C)(C)C)c1"
  CATEGORY: "inactive"
- COMPOUND: "Clc1ccc(C(Cn2ccnc2)OCc2c(Cl)cccc2Cl)c(Cl)c1 (stereo not given)"
  CATEGORY: "inactive"
- COMPOUND: "CC(C)c1cnn2c(NCc3ccccc3)cc(N[C@@H](CO)[C@H](O)CO)nc12"
  CATEGORY: "active"
- COMPOUND: "COC(=O)C1=C(C)NC(C)=C(C(=O)OC(C)C)C1c1cccc2nonc12 (stereo not given)"
  CATEGORY: "inactive"

====

TEST SUMMARY: Quantitative highthroughput screen to assess conditional lethalithy of NOMO1 cells grown in Human Plasma-Like Medium with dialyzed fetal bovine serum (HPLM+ds) (AID 1963878); further: nearly all actives have a fitted effect of over 35% in size; further: potency means the concentration at half of the fitted maximal effect
CONDITION DETAILS: NOMO1 AML cells in HPLM+ds, CellTiter-Glo viability, 48 h; series mostly up to 45.8 µM
Records with an inconclusive call do not appear. Calls of active or inactive are those of the source. Calls come from the whole dose curve; as a rule, active = well fitted cell-killing curve with a large enough effect; inconclusive = small, poorly fitted or top-dose-only effect, or effect the other way; inactive = no such curve, though single readings can be large or run the other way.

- MOLECULE: "C[C@@H](NCCCc1cccc(C(F)(F)F)c1)c1cccc2ccccc12"
  Potency: "inactive"
- MOLECULE: "COc1cc(Nc2c(C#N)cnc3cc(OCCCN4CCN(C)CC4)c(OC)cc23)c(Cl)cc1Cl"
  Potency: "3.72 µM (active)"
- MOLECULE: "Oc1cc2c(cc1O)C1c3ccc(O)c(O)c3OCC1(O)C2 (configuration not stated)"
  Potency: "inactive"
- MOLECULE: "O=c1[nH]c(=O)n(C2CCCO2)cc1F (configuration not stated)"
  Potency: "inactive"
- MOLECULE: "NC(=O)NO"
  Potency: "2.96 µM (active)"
- MOLECULE: "N#CC1(c2ccc(NC(=O)c3cccnc3NCc3ccncc3)cc2)CCCC1"
  Potency: "inactive"
- MOLECULE: "CC1(C)SCCN(S(=O)(=O)c2ccc(OCC#CCO)cc2)[C@@H]1C(=O)NO"
  Potency: "inactive"
- MOLECULE: "CC[C@H]1OC(=O)[C@H](C)[C@@H](O[C@H]2C[C@@](C)(OC)[C@@H](O)[C@H](C)O2)[C@H](C)[C@@H](O[C@@H]2O[C@H](C)C[C@H](N(C)C)[C@@H]2O)[C@](C)(OC)C[C@@H](C)C(=O)[C@H](C)[C@@H](O)[C@]1(C)O"
  Potency: "inactive"
- MOLECULE: "CC(C)(C)c1cc(C(=O)O)c(NC(=O)Nc2ccc3[nH]ncc3c2)s1"
  Potency: "inactive"
- MOLECULE: "OC(c1cc(C(F)(F)F)nc2c(C(F)(F)F)cccc12)C1CCCCN1 (configuration not stated)"
  Potency: "23.5 µM (active)"
- MOLECULE: "CCCCNc1cc(C(=O)O)cc(S(N)(=O)=O)c1Oc1ccccc1"
  Potency: "inactive"
- MOLECULE: "NCCc1ccc(O)c(O)c1"
  Potency: "9.35 µM (active)"
- MOLECULE: "O=C(C=Cc1c(C(=O)O)[nH]c2cc(Cl)cc(Cl)c12)Nc1ccccc1"
  Potency: "inactive"
- MOLECULE: "Cc1c(-c2ccnn2C)cc(C(=O)NCc2ccc(S(C)(=O)=O)cn2)c(=O)n1-c1cccc(C(F)(F)F)c1"
  Potency: "inactive"
- MOLECULE: "CC(C)C[C@H](NC(=O)[C@@H](NC(=O)c1cccc(-c2ccccc2)n1)[C@@H](C)O)B(O)O"
  Potency: "0.0662 µM (active)"
- MOLECULE: "NS(=O)(=O)c1cc(C(=O)O)c(NCc2ccco2)cc1Cl"
  Potency: "inactive"
- MOLECULE: "CC(=O)O[C@H]1C[C@@H]2CC[C@H]3[C@H]4C[C@H]([N+]5(C)CCCCC5)[C@@H](OC(C)=O)[C@@]4(C)CC[C@@H]3[C@@]2(C)C[C@H]1[N+]1(C)CCCCC1"
  Potency: "inactive"
- MOLECULE: "O=C(C1CCCCC1)N1CC(=O)N2CCc3ccccc3C2C1 (configuration not stated)"
  Potency: "inactive"
- MOLECULE: "Cc1nc(-c2ccc(OCC(C)C)c(C#N)c2)sc1C(=O)O"
  Potency: "inactive"
- MOLECULE: "NNc1nncc2ccccc12"
  Potency: "inactive"
- MOLECULE: "Nc1ncnc2nc(-c3ccc(N4CCOCC4)nc3)cc(-c3cccc(Br)c3)c12"
  Potency: "inactive"
- MOLECULE: "OC(Cn1cncn1)(Cn1cncn1)c1ccc(F)cc1F"
  Potency: "inactive"
- MOLECULE: "COc1ccc2c(c1OC)C(=O)OC2[C@H]1c2c(cc3c(c2OC)OCO3)CCN1C (some centres not stated)"
  Potency: "0.148 µM (active)"
- MOLECULE: "c1ccc(-c2nn3c(c2-c2ccnc4cc(OCCN5CCOCC5)ccc24)CCC3)nc1"
  Potency: "18.7 µM (active)"
- MOLECULE: "COc1cc2ncnc(Nc3cccc(Cl)c3)c2cc1OC"
  Potency: "4.69 µM (active)"
- MOLECULE: "CNC(=O)c1ccc(C)c(-n2c(C)cc(OCc3ccc(F)cc3F)c(Br)c2=O)c1"
  Potency: "inactive"
- MOLECULE: "C=CC(=O)Nc1cccc(Nc2nc(NC3CCC(N(C)C)CC3)nc3c2ncn3C(C)C)c1 (configuration not stated)"
  Potency: "2.35 µM (active)"
- MOLECULE: "Cc1c(-c2cccc3c(CCCOc4cccc5ccccc45)c(C(=O)O)n(Cc4cccnc4)c23)c(COc2ccc(N3CCN([S+](=O)([O-])N(C)C)CC3)cc2)nn1C"
  Potency: "inactive"
- MOLECULE: "COc1cc2c(Nc3ccc(Cl)c(Cl)c3F)ncnc2cc1OCC1C[C@@H]2CN(C)C[C@H]2C1"
  Potency: "4.18 µM (active)"
- MOLECULE: "NC[C@H](O)c1ccc(O)c(O)c1"
  Potency: "inactive"
- MOLECULE: "COc1cccc(N(C)C(=S)Oc2ccc3c(c2)CCCC3)n1"
  Potency: "inactive"
- MOLECULE: "CCS(=O)(=O)c1cccc(-c2cc(C(=O)NC3CCN(C)CC3)c(C)c3[nH]c4ncc(C)cc4c23)c1"
  Potency: "6.62 µM (active)"
